Cited source: patent US9375004B2

# Tested on: Alternaria solani
# testName: Alternaria test (tomato)/preventive
# Assay type: in vivo
# assayContext: 500 ppm, preventive, evaluated 7 days after inoculation
In this section, each of the compounds is paired with its reported Efficacy.
measuredMetric: Efficacy (%)

{"compound": "CC(C)C1C2CCC1c1c(NC(=O)c3c(C(F)F)nn(C)c3F)cccc12 (stereo not shown)", "measuredMetric": "Efficacy", "reportedResult": 100}
{"compound": "Cn1nc(C(F)F)c(C(=O)Nc2ccccc2-c2ccc(C(F)(F)F)c(F)c2)c1F", "measuredMetric": "Efficacy", "reportedResult": 100}
{"compound": "Cn1nc(C(F)F)c(C(=O)Nc2ccccc2-c2ccc(Cl)c(Cl)c2)c1F", "measuredMetric": "Efficacy", "reportedResult": 95}
{"compound": "Cn1nc(C(F)F)c(C(=O)Nc2ccc(F)cc2OCC(C)(C)C)c1F", "measuredMetric": "Efficacy", "reportedResult": 70}

---

# Test system: Fusarium nivale (var. majus)
# testName: Fusarium nivale (var. majus)-test (wheat)/preventive
# assayContext: 250 ppm, preventive, evaluated 5 days after inoculation
In this section, each of the compounds is paired with its reported Efficacy.
measuredMetric: Efficacy

{"compound": "Cc1nn(C)c(F)c1C(=O)Nc1ccccc1C(C)CC(C)C (stereo not drawn) [I-21 from WO-2003/010149, reference compound]", "reportedResult": "20%"}
{"compound": "CCCCCc1ccccc1NC(=O)c1c(C(F)F)nn(C)c1Cl", "reportedResult": "71%"}
{"compound": "Cn1nc(C(F)F)c(C(=O)Nc2cccc3c2C2CCC3C2=C(Cl)Cl)c1Cl (stereo not drawn)", "reportedResult": "94%"}
{"compound": "CC(C)C1C2CCC1c1c(NC(=O)c3c(C(F)F)nn(C)c3Cl)cccc12 (stereo not drawn)", "reportedResult": "71%"}
{"compound": "Cn1cc(C(=O)Nc2cccc3c2C2CCC3C2=C(Cl)Cl)c(C(F)F)n1 (stereo not drawn) [A1.1 from WO-2008/131901, reference compound]", "reportedResult": "75%"}
{"compound": "CC(C)C1C2CCC1c1c(NC(=O)c3cn(C)nc3C(F)F)cccc12 (stereo not drawn) [15.202 (syn/anti 9/1) from WO-2004/035589] [reference compound]", "reportedResult": "50%"}
{"compound": "CC(C)C1C2CCC1c1c(NC(=O)c3cn(C)nc3C(F)F)cccc12 (stereo not drawn) [15.202 (syn/anti 3/7) from WO-2004/035589] [reference compound]", "reportedResult": "50%"}
{"compound": "CC(C)C1C2CCC1c1c(NC(=O)c3c(C(F)F)nn(C)c3F)cccc12 (stereo not drawn)", "reportedResult": "93%"}
{"compound": "Cn1nc(C(F)F)c(C(=O)Nc2cccc3c2C2CCC3C2=C(Cl)Cl)c1F (stereo not drawn)", "reportedResult": "100%"}

---

# testName: logP by HPLC on reversed-phase column (EEC Directive 79/831 Annex V.A8)
# assayContext: HPLC on reversed-phase column (C 18), EEC Directive 79/831 Annex V.A8
In this section, each of the molecules is paired with its reported logP.
measuredMetric: logP

{"molecule": "Cn1nc(C(F)F)c(C(=O)Nc2ccccc2OCC(C)(C)C)c1F", "measuredMetric": "logP", "reportedResult": 4.08}
{"molecule": "Cn1nc(C(F)F)c(C(=O)Nc2ccccc2-c2ccc(Cl)c(Cl)c2)c1F", "measuredMetric": "logP", "reportedResult": 3.85}
{"molecule": "CCC(C)Oc1cc(NC(=O)c2c(C(F)F)nn(C)c2F)ccc1C (stereo not drawn)", "measuredMetric": "logP", "reportedResult": 3.85}
{"molecule": "Cn1nc(C(F)F)c(C(=O)Nc2ccccc2-c2ccccc2)c1Cl", "measuredMetric": "logP", "reportedResult": 3.59}
{"molecule": "Cn1nc(C(F)F)c(C(=O)Nc2ccccc2-c2cccc(Cl)c2Cl)c1Cl", "measuredMetric": "logP", "reportedResult": 4.06}
{"molecule": "Cn1nc(C(F)F)c(C(=O)Nc2ccc(F)cc2-c2ccc(Cl)cc2)c1F", "measuredMetric": "logP", "reportedResult": 3.46}
{"molecule": "Cn1nc(C(F)F)c(C(=O)Nc2ccccc2OC(F)(F)C(F)F)c1Cl", "measuredMetric": "logP", "reportedResult": 3.31}
{"molecule": "CC(C)c1cccc(-c2cccc(NC(=O)c3c(C(F)F)nn(C)c3Cl)c2)c1", "measuredMetric": "logP", "reportedResult": 4.61}
{"molecule": "Cn1nc(C(F)F)c(C(=O)Nc2ccccc2-c2cc(F)cc(F)c2)c1Cl", "measuredMetric": "logP", "reportedResult": 3.55}

---

In this section, each of the compounds is paired with its reported logP.
# testName: logP by HPLC on reversed-phase column (EEC Directive 79/831 Annex V.A8)
# assayContext: HPLC on reversed-phase column (C 18), EEC Directive 79/831 Annex V.A8
measuredMetric: logP

{"compound": "Cn1nc(C(F)F)c(C(=O)Nc2cccc(-c3cccc(Cl)c3Cl)c2)c1F [compound 227]", "measuredMetric": "logP", "reportedResult": 3.99}
{"compound": "Cn1nc(C(F)F)c(C(=O)Nc2cccc3c2C2CCC3C2=C(Cl)Cl)c1Cl (centres unmarked) [Example 71]", "measuredMetric": "logP", "reportedResult": 4.21}
{"compound": "Cc1ccccc1-c1ccccc1NC(=O)c1c(C(F)F)nn(C)c1Cl [compound 76]", "measuredMetric": "logP", "reportedResult": 4.14}
{"compound": "Cn1nc(C(F)F)c(C(=O)Nc2cc3c(cc2Br)OC(F)(F)O3)c1F [compound 196]", "measuredMetric": "logP", "reportedResult": 3.58}
{"compound": "Cc1cccc(NC(=O)c2c(C(F)F)nn(C)c2F)c1CCC(C)(C)C [compound 16]", "measuredMetric": "logP", "reportedResult": 4.06}
{"compound": "Cn1nc(C(F)F)c(C(=O)Nc2cccc(-c3ccc(Cl)cc3Cl)c2)c1Cl [compound 230]", "measuredMetric": "logP", "reportedResult": 4.39}
{"compound": "Cn1nc(C(F)F)c(C(=O)Nc2ccccc2-c2cc(F)c(F)cc2F)c1F [Example 107]", "measuredMetric": "logP", "reportedResult": 3.25}
{"compound": "CO/N=C(\\C)c1ccc(-c2ccccc2NC(=O)c2c(C(F)F)nn(C)c2Cl)cc1 [compound 130]", "measuredMetric": "logP", "reportedResult": 4.11}

---

# System: Alternaria solani
# testName: Alternaria test (tomato)/preventive
# Format: in vivo
# assayContext: 500 ppm, preventive, evaluated 7 days after inoculation

{"compound": "Cn1nc(C(F)F)c(C(=O)Nc2ccc(F)cc2-c2ccc(C(F)(F)F)cc2)c1F", "Efficacy": "100%"}
{"compound": "Cn1nc(C(F)F)c(C(=O)Nc2ccc(F)cc2-c2ccc(Cl)cc2)c1F", "Efficacy": "94%"}
{"compound": "Cn1nc(C(F)F)c(C(=O)Nc2ccccc2OC(F)(F)C(F)C(F)(F)F)c1Cl (stereo not shown)", "Efficacy": "100%"}
{"compound": "Cn1nc(C(F)F)c(C(=O)Nc2ccc(F)cc2-c2ccc(Cl)c(Cl)c2)c1F", "Efficacy": "100%"}
{"compound": "CC1CCCC(c2ccccc2NC(=O)c2c(C(F)F)nn(C)c2Cl)C1 (stereo not shown)", "Efficacy": "100%"}
{"compound": "Cn1nc(C(F)F)c(C(=O)Nc2ccccc2-c2ccc(Br)c(Cl)c2)c1Cl", "Efficacy": "90%"}
{"compound": "Cn1nc(C(F)F)c(C(=O)Nc2cccc3c2CCC3)c1F", "Efficacy": "70%"}
{"compound": "Cn1nc(C(F)F)c(C(=O)Nc2ccccc2-c2cc(F)c(F)cc2F)c1F", "Efficacy": "100%"}
{"compound": "Cn1nc(C(F)F)c(C(=S)Nc2ccccc2-c2cc(F)c(F)c(F)c2)c1F", "Efficacy": "90%"}
{"compound": "CCCC(C)c1ccccc1NC(=O)c1c(C(F)F)nn(C)c1F (stereo not shown)", "Efficacy": "95%"}
{"compound": "Cn1nc(C(F)F)c(C(=O)Nc2ccccc2-c2ccc(F)cc2)c1Cl", "Efficacy": "90%"}
{"compound": "CCCOc1cccc(NC(=O)c2c(C(F)F)nn(C)c2Cl)c1", "Efficacy": "70%"}
{"compound": "Cn1nc(C(F)F)c(C(=O)Nc2ccccc2-c2ccc(Cl)cc2)c1F", "Efficacy": "95%"}
{"compound": "Cn1nc(C(F)F)c(C(=O)Nc2ccccc2-c2ccccc2)c1Cl", "Efficacy": "78%"}
{"compound": "Cn1nc(C(F)F)c(C(=O)Nc2ccccc2-c2cccc(Cl)c2)c1Cl", "Efficacy": "95%"}
{"compound": "CC(CC(C)(C)C)c1ccccc1NC(=O)c1c(C(F)F)nn(C)c1F (stereo not shown)", "Efficacy": "95%"}
{"compound": "Cn1nc(C(F)F)c(C(=S)Nc2ccccc2-c2ccc(Br)cc2)c1Cl", "Efficacy": "70%"}
{"compound": "Cc1cc(Cl)ccc1Oc1cccc(NC(=O)c2c(C(F)F)nn(C)c2F)c1", "Efficacy": "70%"}
{"compound": "Cn1nc(C(F)F)c(C(=O)Nc2ccccc2-c2ccccc2)c1F", "Efficacy": "90%"}
{"compound": "Cn1nc(C(F)F)c(C(=O)Nc2ccc(F)cc2-c2ccc(F)cc2)c1Cl", "Efficacy": "90%"}
{"compound": "COC(C)(C)C#Cc1ccccc1NC(=O)c1c(C(F)F)nn(C)c1F", "Efficacy": "80%"}
{"compound": "CCC(CC(C)C)c1ccccc1NC(=O)c1c(C(F)F)nn(C)c1F (stereo not shown)", "Efficacy": "90%"}
{"compound": "CC1CC(C)(C)c2cccc(NC(=O)c3c(C(F)F)nn(C)c3F)c21 (racemic)", "Efficacy": "95%"}
{"compound": "Cn1nc(C(F)F)c(C(=O)Nc2cccc3c2C2CCC3C2=C(Cl)Cl)c1Cl (stereo not shown)", "Efficacy": "80%"}
{"compound": "CCCC(C)c1ccccc1NC(=O)c1c(C(F)F)nn(C)c1Cl (stereo not shown)", "Efficacy": "95%"}
{"compound": "CC(C)CCc1ccccc1NC(=O)c1c(C(F)F)nn(C)c1F", "Efficacy": "95%"}
{"compound": "Cn1nc(C(F)F)c(C(=S)Nc2ccccc2-c2ccc(Cl)c(F)c2)c1Cl", "Efficacy": "80%"}
{"compound": "Cn1nc(C(F)F)c(C(=O)Nc2ccccc2-c2ccc(Br)cc2Cl)c1Cl", "Efficacy": "95%"}
{"compound": "Cc1ccccc1-c1ccccc1NC(=O)c1c(C(F)F)nn(C)c1F", "Efficacy": "94%"}
{"compound": "Cn1nc(C(F)F)c(C(=O)Nc2ccccc2-c2ccc(F)c(F)c2)c1Cl", "Efficacy": "94%"}
{"compound": "Cn1nc(C(F)F)c(C(=O)Nc2ccccc2OC(F)(F)C(F)C(F)(F)F)c1F (stereo not shown)", "Efficacy": "95%"}
